Source of measurements: the Human Domainome abundance scans (Beltran et al. 2025)

Reported values of abundance fitness for individual entries
B1: Homeobox protein cut-like 1, residues 548 to 629; numbered along this chain, P39880 (parent)
chain: GEEMDTAEIARQVKEQLIKHNIGQRIFGHYVLGLSQGSVSEILARPKPWNKLTVRGKEPFHKMKQFLSDEQNILALRSIQGR

Variants of: B1
Assay: abundance fitness (aPCA) (normalised: wild type 0, dead -1); higher = more abundant; growth selection in yeast, the domain comes from the species named
Conditions: Homo sapiens
Respond using a number only.

A selection of reference data follows.
Prompt: Entry under review: `E2T` . Reported abundance fitness?
Response: -0.117

Prompt: Quick one: `R82D`
Response: -0.092

Prompt: Quick one: `K19P`
Response: -0.763

Prompt: Quick one: `Q24V`
Response: 0.043

Prompt: Quick one: `L34P`
Response: -0.519

Attention now turns to another entry.
Prompt: Entry under review: `P59R` . Reported abundance fitness?
Response: 0.023
